# credit: ChEMBL document CHEMBL4325900

The following compounds are shown together with reported MIC values.
System: Escherichia coli
assay.protocol: Antibacterial activity against Escherichia coli ATCC 11775 after 24 hrs by NCCLS method
Assay type: functional
cond: DSM 30083 = JCM 1649 = ATCC 11775, 24 h
The response must be a number in µg/mL with no trailing unit.

Here are 2 compounds together with their reported answers.
C=C[C@]1(C)C[C@@H](OC(=O)CSc2nc(NC(=O)CN3CCOCC3)c3cc[nH]c3n2)[C@]2(C)[C@H](C)CC[C@]3(CCC(=O)[C@H]32)[C@@H](C)[C@@H]1O; 64
C=C[C@]1(C)C[C@@H](OC(=O)CSc2nc(NC(=O)CN3CCCCC3)c3cc[nH]c3n2)[C@]2(C)[C@H](C)CC[C@]3(CCC(=O)[C@H]32)[C@@H](C)[C@@H]1O; 64

Would you kindly look at the next entry?
Given the entry C=C[C@]1(C)C[C@@H](OC(=O)CSC(C)(C)CNC(=O)[C@H](N)C(C)C)[C@]2(C)[C@H](C)CC[C@]3(CCC(=O)[C@H]32)[C@@H](C)[C@@H]1O.Cl [VALNEMULIN HYDROCHLORIDE] , report its measured MIC.
32

---

The following compounds are shown together with reported MIC values.
System: Escherichia coli
assay.protocol: Antibacterial activity against Escherichia coli ATCC 11775 after 24 hrs by NCCLS method
Type: functional
cond: DSM 30083 = JCM 1649 = ATCC 11775, 24 h
The response must be a number in µg/mL with no trailing unit.

C=C[C@]1(C)C[C@@H](OC(=O)CSc2nc(NC(=O)CN3CCCC3)c3cc[nH]c3n2)[C@]2(C)[C@H](C)CC[C@]3(CCC(=O)[C@H]32)[C@@H](C)[C@@H]1O; 32

Would you kindly look at the next entry?
Given the entry C=C[C@]1(C)C[C@@H](OC(=O)CSc2nc(NC(=O)CN(CC)CC)c3cc[nH]c3n2)[C@]2(C)[C@H](C)CC[C@]3(CCC(=O)[C@H]32)[C@@H](C)[C@@H]1O , report its measured MIC.
16

---

System: Escherichia coli
assay.protocol: Antibacterial activity against Escherichia coli ATCC 11775 after 24 hrs by NCCLS method
Format: functional
cond: DSM 30083 = JCM 1649 = ATCC 11775, 24 h
measured.endpoint: MIC

C=C[C@]1(C)C[C@@H](OC(=O)CSc2nc(NC(=O)CN3CCC(N(C)C)CC3)c3cc[nH]c3n2)[C@]2(C)[C@H](C)CC[C@]3(CCC(=O)[C@H]32)[C@@H](C)[C@@H]1O; > 64 µg/mL
C=C[C@]1(C)C[C@@H](OC(=O)CSc2nc(N)c3cc[nH]c3n2)[C@]2(C)[C@H](C)CC[C@]3(CCC(=O)[C@H]32)[C@@H](C)[C@@H]1O; > 64 µg/mL

Would you kindly look at the next entry?
Missing value: MIC, Escherichia coli, entry C=C[C@]1(C)C[C@@H](OC(=O)CSc2nc(NC(=O)CN3CCN(C)CC3)c3cc[nH]c3n2)[C@]2(C)[C@H](C)CC[C@]3(CCC(=O)[C@H]32)[C@@H](C)[C@@H]1O . Fill in?
> 64 µg/mL
